Cited source: patent US6794386B2

Give pIC50 for every item shown.
Target: VLA-4 (Homo sapiens, UniProt P05556+P13612)
Construct: host or cells: Jurkat clone E6-1
Sequence (P13612 34-1032): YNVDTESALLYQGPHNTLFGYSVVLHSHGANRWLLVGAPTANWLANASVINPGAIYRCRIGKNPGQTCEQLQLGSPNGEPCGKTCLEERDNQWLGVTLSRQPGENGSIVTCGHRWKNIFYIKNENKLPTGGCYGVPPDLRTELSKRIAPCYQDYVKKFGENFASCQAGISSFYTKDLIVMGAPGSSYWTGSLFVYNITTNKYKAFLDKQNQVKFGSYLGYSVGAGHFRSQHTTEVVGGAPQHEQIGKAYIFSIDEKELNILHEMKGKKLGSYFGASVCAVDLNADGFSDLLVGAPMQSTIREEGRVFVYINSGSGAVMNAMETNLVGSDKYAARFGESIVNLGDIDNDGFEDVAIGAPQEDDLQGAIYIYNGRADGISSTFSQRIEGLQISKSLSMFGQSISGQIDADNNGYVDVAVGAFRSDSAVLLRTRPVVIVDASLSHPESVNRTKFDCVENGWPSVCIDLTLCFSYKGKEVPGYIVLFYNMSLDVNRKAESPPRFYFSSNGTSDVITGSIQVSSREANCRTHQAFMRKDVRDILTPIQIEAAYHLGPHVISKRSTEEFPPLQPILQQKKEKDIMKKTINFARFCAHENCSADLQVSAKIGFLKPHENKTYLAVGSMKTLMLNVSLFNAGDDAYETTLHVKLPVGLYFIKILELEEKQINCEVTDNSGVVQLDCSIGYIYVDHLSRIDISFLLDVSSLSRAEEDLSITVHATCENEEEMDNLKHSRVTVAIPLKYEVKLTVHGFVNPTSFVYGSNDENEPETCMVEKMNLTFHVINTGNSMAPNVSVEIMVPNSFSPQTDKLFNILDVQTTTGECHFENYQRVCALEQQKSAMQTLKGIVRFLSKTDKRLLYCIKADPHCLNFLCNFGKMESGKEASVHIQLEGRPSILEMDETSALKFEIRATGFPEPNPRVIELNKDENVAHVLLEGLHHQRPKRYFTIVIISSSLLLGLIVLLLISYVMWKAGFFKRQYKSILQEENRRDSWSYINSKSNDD
Sequence (P05556 21-798): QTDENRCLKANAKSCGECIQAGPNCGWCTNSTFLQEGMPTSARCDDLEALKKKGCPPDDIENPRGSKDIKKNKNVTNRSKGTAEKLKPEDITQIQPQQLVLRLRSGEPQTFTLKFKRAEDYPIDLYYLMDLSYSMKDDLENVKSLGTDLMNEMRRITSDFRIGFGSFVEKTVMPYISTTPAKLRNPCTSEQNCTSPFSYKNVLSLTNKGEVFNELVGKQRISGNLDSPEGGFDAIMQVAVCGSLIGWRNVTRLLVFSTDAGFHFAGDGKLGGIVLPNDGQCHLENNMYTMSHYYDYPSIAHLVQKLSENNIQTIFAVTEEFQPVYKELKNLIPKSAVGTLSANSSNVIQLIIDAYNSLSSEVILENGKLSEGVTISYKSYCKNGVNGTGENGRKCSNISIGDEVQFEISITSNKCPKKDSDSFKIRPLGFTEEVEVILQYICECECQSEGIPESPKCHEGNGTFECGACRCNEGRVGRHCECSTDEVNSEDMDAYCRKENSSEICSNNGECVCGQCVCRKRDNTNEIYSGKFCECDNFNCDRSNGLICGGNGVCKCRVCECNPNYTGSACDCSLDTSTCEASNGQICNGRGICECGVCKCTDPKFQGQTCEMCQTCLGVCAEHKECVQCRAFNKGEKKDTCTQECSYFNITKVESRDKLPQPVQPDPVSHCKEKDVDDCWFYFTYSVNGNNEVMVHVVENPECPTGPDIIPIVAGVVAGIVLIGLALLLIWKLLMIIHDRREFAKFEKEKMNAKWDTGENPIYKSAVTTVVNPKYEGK
Test: Adhesion of Jurkat cells to immobilized VCAM-1 (domains 1-3)
Type: cell-based
Settings: adhesion of CFSE-labeled Jurkat cells to recombinant human VCAM-1 (domains 1-3) coated plates; compounds as yielded by solid phase synthesis, purity about 40-90%; read-out: IC50
pIC50: −log10 of the molar value.

input: Using the record for COc1ccc(-c2ccc(C[C@H](NC(=O)C3CCCN(C(=O)c4ccccc4Cl)C3)C(=O)O)cc2)cc1 (stereo partly drawn) , report its pIC50.
output: 5.70 to 6.30

input: Using the record for CS(=O)(=O)N1CCCC(C(=O)N[C@@H](Cc2ccc(NC(=O)N3CCN(C(c4ccccc4)c4ccccc4)CC3)cc2)C(=O)O)C1 (stereo partly drawn) , report its pIC50.
output: 5.70 to 6.30

input: Using the record for O=C(N[C@@H](Cc1ccc(-c2ccccc2)cc1)C(=O)O)C1CCCN(C(=O)OC2CCCC2)C1 (stereo partly drawn) , report its pIC50.
output: 5.00 to 5.70

input: Using the record for CN1CCN(C(=O)Nc2ccc(C[C@H](NC(=O)C3CCCN(S(=O)(=O)Cc4ccccc4)C3)C(=O)O)cc2)CC1 (stereo partly drawn) , report its pIC50.
output: 5.70 to 6.30

input: Using the record for CN(Cc1ccccc1)c1ncnc(N2CCCC(C(=O)N[C@@H](Cc3ccc(NC(=O)N4CCOCC4)cc3)C(=O)O)C2)c1F (stereo partly drawn) , report its pIC50.
output: 5.70 to 6.30

input: Using the record for COc1ccc(S(=O)(=O)N2CCCC(C(=O)N[C@@H](Cc3ccc(-c4ccccc4C)cc3)C(=O)O)C2)cc1OC (stereo partly drawn) , report its pIC50.
output: 5.00 to 5.70

input: Using the record for COc1ccccc1-c1ccc(C[C@H](NC(=O)C2CCCN(c3ncnc(NCc4ccccn4)c3F)C2)C(=O)O)cc1 (stereo partly drawn) , report its pIC50.
output: 5.70 to 6.30

input: Using the record for Cc1ccccc1-c1ccc(C[C@H](NC(=O)C2CCCN(S(=O)(=O)c3c(Cl)cccc3Cl)C2)C(=O)O)cc1 (stereo partly drawn) , report its pIC50.
output: 5.70 to 6.30

input: Using the record for O=C(N[C@@H](Cc1ccc(NC(=O)N2CCOCC2)cc1)C(=O)O)C1CCCN(C(=O)Cc2ccccc2)C1 (stereo partly drawn) , report its pIC50.
output: 5.70 to 6.30

input: Using the record for CC(C)NC(=O)N1CCCC(C(=O)N[C@@H](Cc2ccc(NC(=O)N3CCOCC3)cc2)C(=O)O)C1 (stereo partly drawn) , report its pIC50.
output: ≥ 6.30

input: Using the record for O=C(N[C@@H](Cc1ccc(NC(=O)N2CCOCC2)cc1)C(=O)O)C1CCCN(C(=O)c2ccccc2F)C1 (stereo partly drawn) , report its pIC50.
output: ≥ 6.30

input: Using the record for O=C(N[C@@H](Cc1ccc(NC(=O)N2CCOCC2)cc1)C(=O)O)C1CCCN(S(=O)(=O)Cc2ccccc2)C1 (stereo partly drawn) , report its pIC50.
output: 5.70 to 6.30

input: Using the record for CN1CCN(C(=O)Nc2ccc(C[C@H](NC(=O)C3CCCN(c4ncnc(N5CCCC5)c4F)C3)C(=O)O)cc2)CC1 (stereo partly drawn) , report its pIC50.
output: 5.00 to 5.70

input: Using the record for Cc1ccc(S(=O)(=O)N2CCCC(C(=O)N[C@@H](Cc3ccc(NC(=O)NC4CCN(Cc5ccccc5)CC4)cc3)C(=O)O)C2)cc1 (stereo partly drawn) , report its pIC50.
output: 5.00 to 5.70

input: Using the record for Cc1ccc(C(=O)N2CCCC(C(=O)N[C@@H](Cc3ccc(-c4ccccc4C)cc3)C(=O)O)C2)cc1 (stereo partly drawn) , report its pIC50.
output: 5.00 to 5.70

input: Using the record for CN1CCN(C(=O)Nc2ccc(C[C@H](NC(=O)C3CCCN(c4ncnc(N)c4F)C3)C(=O)O)cc2)CC1 (stereo partly drawn) , report its pIC50.
output: ≥ 6.30

input: Using the record for O=C(N[C@@H](Cc1ccc(NC(=O)N2CCN(c3ccccc3)CC2)cc1)C(=O)O)C1CCCN(c2ncnc(NCc3ccncc3)c2F)C1 (stereo partly drawn) , report its pIC50.
output: 5.70 to 6.30

input: Using the record for O=C(N[C@@H](Cc1ccc(NC(=O)N2CCN(c3ccccc3)CC2)cc1)C(=O)O)C1CCCN(c2ncnc(NCc3cccnc3)c2F)C1 (stereo partly drawn) , report its pIC50.
output: 5.70 to 6.30

input: Using the record for O=C(N[C@@H](Cc1ccc(NC(=O)N2CCOCC2)cc1)C(=O)O)C1CCCN(c2ncnc(N3CCN(c4ccccc4)CC3)c2F)C1 (stereo partly drawn) , report its pIC50.
output: 5.00 to 5.70

input: Using the record for O=C(N[C@@H](Cc1ccc(NC(=O)N2CCOCC2)cc1)C(=O)O)C1CCCN(c2ncnc(NCc3ccccc3)c2F)C1 (stereo partly drawn) , report its pIC50.
output: 5.70 to 6.30

input: Using the record for Cc1ccc(S(=O)(=O)N2CCCC(C(=O)N[C@@H](Cc3ccc(NC(=O)N4CCOCC4)cc3)C(=O)O)C2)cc1 (stereo partly drawn) , report its pIC50.
output: ≥ 6.30

input: Using the record for COc1ccccc1C(=O)N1CCCC(C(=O)N[C@@H](Cc2ccc(NC(=O)N3CCc4ccccc4C3)cc2)C(=O)O)C1 (stereo partly drawn) , report its pIC50.
output: ≥ 6.30

input: Using the record for Cc1ccc(S(=O)(=O)N2CCCC(C(=O)N[C@@H](Cc3ccc(-c4cc(Cl)ccc4Cl)cc3)C(=O)O)C2)cc1 (stereo partly drawn) , report its pIC50.
output: ≥ 6.30

input: Using the record for COc1ccccc1C(=O)N1CCCC(C(=O)N[C@@H](Cc2ccc(NC(=O)N3CCCCC3)cc2)C(=O)O)C1 (stereo partly drawn) , report its pIC50.
output: ≥ 6.30

input: Using the record for COc1ccc(S(=O)(=O)N2CCCC(C(=O)N[C@@H](Cc3ccc(NC(=O)N4CCN(C)CC4)cc3)C(=O)O)C2)cc1OC (stereo partly drawn) , report its pIC50.
output: ≥ 6.30

input: Using the record for O=C(N[C@@H](Cc1ccc(NC(=O)N2CCOCC2)cc1)C(=O)O)C1CCCN(C(=O)Nc2ccccc2F)C1 (stereo partly drawn) , report its pIC50.
output: 5.70 to 6.30

input: Using the record for CN1CCN(C(=O)Nc2ccc(C[C@H](NC(=O)C3CCCN(S(=O)(=O)c4ccc5ccccc5c4)C3)C(=O)O)cc2)CC1 (stereo partly drawn) , report its pIC50.
output: ≥ 6.30
